Molecular target: HLA-A*02:01 (Homo sapiens, UniProt P04439, D140Y/D185E/D98H/E176V/E277Q/G131W/G231S/I119V/I121R/I166T/I218V/L300P/L318F/N151K/N90K/P208A/P217A/Q86G/Q94H/R138H/R169H/T345S)
Test: MHC binding assay (UV-ligand exchange, ELISA of stabilized MHC complexes)
Conditions: MHC class I binding score; binding to HLA-A*02:01 ranged by peptide exchange yield (UV-ligand exchange, ELISA)
MEASUREMENT TYPE: Peptide exchange

Here is how some substances turned out for Peptide exchange.
                                  substance  measurement_type  recorded_measurement
0  100 (YLLSTNAQL; listed as Homo sapiens) [compound 100]  Peptide exchange  ″++++″ (≥75% = ++++)
1  370 (SLLQDLVSV; listed as Homo sapiens) [compound 370]  Peptide exchange    ″+++″ (≥50% = +++)
2  460 (AMLEKNYKL; listed as Homo sapiens) [compound 460]  Peptide exchange  ″++++″ (≥75% = ++++)
3  45 (SLWQDIPDV; listed as Homo sapiens) [compound 45]  Peptide exchange    ″+++″ (≥50% = +++)
4  334 (TLTKVLVAL; listed as Homo sapiens) [compound 334]  Peptide exchange    ″+++″ (≥50% = +++)
5  450 (FMIDASVHPTL; listed as Homo sapiens) [compound 450]  Peptide exchange    ″+++″ (≥50% = +++)
6  309 (GLFDGVPTTA; listed as Homo sapiens) [compound 309]  Peptide exchange    ″+++″ (≥50% = +++)
7  78 (SLFSSLEPQIQPV; listed as Homo sapiens) [compound 78]  Peptide exchange    ″+++″ (≥50% = +++)

response.value for 285 (QLLHVGVTV; listed as Homo sapiens) [compound 285] (field: Peptide exchange) = ″+++″ (≥50% = +++)

response.value for 608 (SLLSVSHAL; listed as Homo sapiens) [compound 608] (field: Peptide exchange) = ″+++″ (≥50% = +++)

response.value for 438 (KLLPLAGLYL; listed as Homo sapiens) [compound 438] (field: Peptide exchange) = ″++++″ (≥75% = ++++)

----------
Biological target: HLA-A*02:01 (Homo sapiens, UniProt P04439, D140Y/D185E/D98H/E176V/E277Q/G131W/G231S/I119V/I121R/I166T/I218V/L300P/L318F/N151K/N90K/P208A/P217A/Q86G/Q94H/R138H/R169H/T345S)
Assay: MHC binding assay (UV-ligand exchange, ELISA of stabilized MHC complexes)
Conditions: MHC class I binding score; binding to HLA-A*02:01 ranged by peptide exchange yield (UV-ligand exchange, ELISA)
MEASUREMENT TYPE: Peptide exchange

Here is how some substances turned out for Peptide exchange.
                                  substance  recorded_measurement
0  511 (FLDPYCSASV; listed as Homo sapiens) [compound 511]      ″++″ (≥20% = ++)
1  513 (SLWPSPEQL; listed as Homo sapiens) [compound 513]      ″++″ (≥20% = ++)
2  243 (LLLNELPSV; listed as Homo sapiens) [compound 243]    ″+++″ (≥50% = +++)
3  67 (TLLAEALVTV; listed as Homo sapiens) [compound 67]    ″+++″ (≥50% = +++)
4  448 (NLLETKLQL; listed as Homo sapiens) [compound 448]    ″+++″ (≥50% = +++)
5  146 (SLATAGDGLIEL; listed as Homo sapiens) [compound 146]      ″++″ (≥20% = ++)

Read the next record carefully.
response.value for 504 (GLSDGNPSL; listed as Homo sapiens) [compound 504] (field: Peptide exchange) = ″++″ (≥20% = ++)

----------
Biological target: HLA-A*02:01 (Homo sapiens, UniProt P04439, D140Y/D185E/D98H/E176V/E277Q/G131W/G231S/I119V/I121R/I166T/I218V/L300P/L318F/N151K/N90K/P208A/P217A/Q86G/Q94H/R138H/R169H/T345S)
Test: MHC binding assay (UV-ligand exchange, ELISA of stabilized MHC complexes)
Conditions: MHC class I binding score; binding to HLA-A*02:01 ranged by peptide exchange yield (UV-ligand exchange, ELISA)
MEASUREMENT TYPE: Peptide exchange

                                  substance  recorded_measurement
0  252 (LLIGTDVSL; listed as Homo sapiens) [compound 252]    ″+++″ (≥50% = +++)
1  231 (FLSPQQPPLLL; listed as Homo sapiens) [compound 231]      ″++″ (≥20% = ++)
2  124 (ALYETELADA; listed as Homo sapiens) [compound 124]      ″++″ (≥20% = ++)
3  144 (YIMEPSIFNTL; listed as Homo sapiens) [compound 144]    ″+++″ (≥50% = +++)

----------
Molecular target: HLA-A*02:01 (Homo sapiens, UniProt P04439, D140Y/D185E/D98H/E176V/E277Q/G131W/G231S/I119V/I121R/I166T/I218V/L300P/L318F/N151K/N90K/P208A/P217A/Q86G/Q94H/R138H/R169H/T345S)
Assay: MHC binding assay (UV-ligand exchange, ELISA of stabilized MHC complexes)
Conditions: MHC class I binding score; binding to HLA-A*02:01 ranged by peptide exchange yield (UV-ligand exchange, ELISA)
MEASUREMENT TYPE: Peptide exchange

Here is how some substances turned out for Peptide exchange.
In [3]: df
Out[3]:
                                  substance  recorded_measurement
0  476 (ALMERTGYSMV; listed as Homo sapiens) [compound 476]    ″+++″ (≥50% = +++)
1  332 (YLISELEAA; listed as Homo sapiens) [compound 332]    ″+++″ (≥50% = +++)
2  175 (YLFENISQL; listed as Homo sapiens) [compound 175]    ″+++″ (≥50% = +++)
3  139 (SVMEVNSGIYRV; listed as Homo sapiens) [compound 139]    ″+++″ (≥50% = +++)
4  86 (NLIGKIENV; listed as Homo sapiens) [compound 86]    ″+++″ (≥50% = +++)

response.value for 40 (TLLVKVFSV; listed as Homo sapiens) [compound 40] (field: Peptide exchange) = ″+++″ (≥50% = +++)

response.value for 402 (VLFSGALLGL; listed as Homo sapiens) [compound 402] (field: Peptide exchange) = ″++″ (≥20% = ++)

----------
Biological target: HLA-A*02:01 (Homo sapiens, UniProt P04439, D140Y/D185E/D98H/E176V/E277Q/G131W/G231S/I119V/I121R/I166T/I218V/L300P/L318F/N151K/N90K/P208A/P217A/Q86G/Q94H/R138H/R169H/T345S)
Assay: MHC binding assay (UV-ligand exchange, ELISA of stabilized MHC complexes)
Conditions: MHC class I binding score; binding to HLA-A*02:01 ranged by peptide exchange yield (UV-ligand exchange, ELISA)
MEASUREMENT TYPE: Peptide exchange

Here is how some substances turned out for Peptide exchange.
                                  substance  recorded_measurement
0  26 (ALLELAEEL; listed as Homo sapiens) [compound 26]    ″+++″ (≥50% = +++)
1  529 (LLADELITV; listed as Homo sapiens) [compound 529]    ″+++″ (≥50% = +++)
2  403 (KLYDRILRV; listed as Homo sapiens) [compound 403]      ″++″ (≥20% = ++)
3  73 (NIFDLQIYV; listed as Homo sapiens) [compound 73]    ″+++″ (≥50% = +++)
4  487 (LLINSVFHV; listed as Homo sapiens) [compound 487]    ″+++″ (≥50% = +++)
5  29 (KMLGIPISNILMV; listed as Homo sapiens) [compound 29]    ″+++″ (≥50% = +++)
6  501 (LLDPNVKSIFV; listed as Homo sapiens) [compound 501]    ″+++″ (≥50% = +++)

Read the next record carefully.
response.value for 392 (ALLHPQGFEV; listed as Homo sapiens) [compound 392] (field: Peptide exchange) = ″++″ (≥20% = ++)

----------
Biological target: HLA-A*02:01 (Homo sapiens, UniProt P04439, D140Y/D185E/D98H/E176V/E277Q/G131W/G231S/I119V/I121R/I166T/I218V/L300P/L318F/N151K/N90K/P208A/P217A/Q86G/Q94H/R138H/R169H/T345S)
Assay: MHC binding assay (UV-ligand exchange, ELISA of stabilized MHC complexes)
Settings: MHC class I binding score; binding to HLA-A*02:01 ranged by peptide exchange yield (UV-ligand exchange, ELISA)
MEASUREMENT TYPE: Peptide exchange

Here is how some substances turned out for Peptide exchange.
                                  substance  recorded_measurement
0  123 (NLWDLTDASVV; listed as Homo sapiens) [compound 123]    ″+++″ (≥50% = +++)
1  176 (YLMEGSYNKVFL; listed as Homo sapiens) [compound 176]      ″++″ (≥20% = ++)
2  355 (SIQQSIERLLV; listed as Homo sapiens) [compound 355]      ″++″ (≥20% = ++)
3  433 (AMLNEPWAV; listed as Homo sapiens) [compound 433]    ″+++″ (≥50% = +++)
4  467 (FLAKDFNFL; listed as Homo sapiens) [compound 467]    ″+++″ (≥50% = +++)
5  158 (KLFDVDEDGYI; listed as Homo sapiens) [compound 158]    ″+++″ (≥50% = +++)
6  150 (RLWEEGEELEL; listed as Homo sapiens) [compound 150]    ″+++″ (≥50% = +++)

Read the next record carefully.
response.value for 615 (VLPPDTDPA; listed as Homo sapiens) [compound 615] (field: Peptide exchange) = ″++″ (≥20% = ++)
